# EXPERIMENT: self-splicing fitness, log relative to wild type (ln ratio); higher = more splicing; Tetrahymena group I intron in knt gene, E. coli kanamycin selection, DiMSum; sequences stand for … in CUCUCU…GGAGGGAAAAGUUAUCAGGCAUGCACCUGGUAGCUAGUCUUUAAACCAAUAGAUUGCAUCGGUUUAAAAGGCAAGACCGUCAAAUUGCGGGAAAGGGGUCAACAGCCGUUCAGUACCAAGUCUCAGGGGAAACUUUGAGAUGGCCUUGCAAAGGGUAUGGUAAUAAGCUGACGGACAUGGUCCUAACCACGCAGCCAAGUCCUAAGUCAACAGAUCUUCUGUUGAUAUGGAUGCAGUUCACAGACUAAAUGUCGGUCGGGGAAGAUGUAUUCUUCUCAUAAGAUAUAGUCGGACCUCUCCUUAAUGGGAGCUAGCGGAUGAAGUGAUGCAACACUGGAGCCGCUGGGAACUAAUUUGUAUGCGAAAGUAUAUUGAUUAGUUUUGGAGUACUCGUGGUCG;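 note: selection with 25 µg/mL kanamycin versus none on LB agar overnight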
# DETAILS: 37 °C
ASSAY ENDPOINT: self-splicing fitness (ln)

These solved cases illustrate the format of a correct answer.
| SEQUENCE TEXT | self-splicing fitness (ln) |
| --- | --- |
| GUAAAGCAAUAUUACGGUAG | -1.37 |
| AUAUAGCAAUAUUACGCGAG | -1.09 |
| UCCCAGCAAUAUUACGCGUC | -1.47 |
| UCCCAGCAAUAUUACGAGGU | -0.885 |
| ACGCAGCAAUAUUACGGGCU | -1.36 |
| AUAGAGCAAUAUUACGCAGA | -1.84 |

self-splicing fitness (ln) for `CCUGAGCAAUAUUACGUCAA` is -2.36

self-splicing fitness (ln) reading for `GAUAAGCAAUAUUACGAGGA` : -2.12

For this sequence ( `UGUCAGCAAUAUUACGCGGA` ), measured self-splicing fitness (ln) is -1.52

`UUGCAGCAAUAUUACGCCCA` has a reported self-splicing fitness (ln) of -0.155

What the record says about `ACUAAGCAAUAUUACGGUAA` : self-splicing fitness (ln) is -1.92

The sequence `ACGAAGCAAUAUUACGGGUU` showed self-splicing fitness (ln) equal to -2.58

Entry under test: `UUGAAGCAAUAUUACGUACG` . Its self-splicing fitness (ln) was 0.427

###

# EXPERIMENT: self-splicing fitness, log relative to wild type (ln ratio); higher = more splicing; Tetrahymena group I intron in knt gene, E. coli kanamycin selection, DiMSum; sequences stand for … in CUCUCU…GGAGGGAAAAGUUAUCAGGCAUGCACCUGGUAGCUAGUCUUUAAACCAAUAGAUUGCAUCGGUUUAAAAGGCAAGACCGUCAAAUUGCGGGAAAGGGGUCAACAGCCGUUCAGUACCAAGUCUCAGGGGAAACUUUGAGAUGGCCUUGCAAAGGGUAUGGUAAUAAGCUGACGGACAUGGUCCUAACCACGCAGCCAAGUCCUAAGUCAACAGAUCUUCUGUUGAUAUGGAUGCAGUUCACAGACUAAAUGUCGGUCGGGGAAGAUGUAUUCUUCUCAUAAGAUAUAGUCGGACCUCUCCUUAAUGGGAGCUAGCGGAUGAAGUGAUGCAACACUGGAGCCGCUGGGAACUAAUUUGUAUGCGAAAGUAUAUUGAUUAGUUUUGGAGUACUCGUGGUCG
# DETAILS: 30 °C
// Not met strictly below -3 in self-splicing fitness (ln); Met otherwise

| SEQUENCE TEXT | ASSIGNED CLASS |
| --- | --- |
| UUGCAGCAAUAUUACGGUAG | Met |
| ACUUAGCAAUAUUACGAAGG | Met |
| UUCCAGCAAUAUUACGUUAC | Not met |
| UCUAAGCAAUAUUACGUUCA | Met |
| UUCCAGCAAUAUUACGGACC | Met |

Reported self-splicing fitness (ln) reaches at least -3 for `GCACAGCAAUAUUACGGCUA` ?
Met

Please indicate if the recorded self-splicing fitness (ln) for `GGGUAGCAAUAUUACGCACU` meets or exceeds -3.
Not met

For this sequence, is measured self-splicing fitness (ln) -3 or higher? `ACUAAGCAAUAUUACGGAGA`
Met

Record `UUCAAGCAAUAUUACGCAUU` ; criterion: self-splicing fitness (ln) no lower than -3. Met?
Not met

Evaluate `GCUGAGCAAUAUUACGCAAU` : self-splicing fitness (ln) at minimum -3?
Met

Entry `GGCCAGCAAUAUUACGAUGU` : is its self-splicing fitness (ln) no less than -3?
Met

Dear colleague, could you confirm whether `CUAAAGCAAUAUUACGUUAA` has self-splicing fitness (ln) at or above -3?
Not met

Hello, I need to know if `AACCAGCAAUAUUACGGGCU` has measured self-splicing fitness (ln) not below -3. Thanks!
Met

Hi team, for `CCGCAGCAAUAUUACGUUGA` , is the recorded self-splicing fitness (ln) at or above -3?
Not met

Decide: self-splicing fitness (ln) of `ACCUAGCAAUAUUACGCCUA` >= -3?
Met
